From: PubChem BioAssay (NCI)

Each entry below lists one item and its recorded TGI value.
# Test system: HOP-92 NSCLC
# assay-comment: NCI tumour cell line growth inhibition, 48 h

Before answering, review these 5 worked examples.
C=C1C(=O)O[C@@H]2[C@H]1CCC(C)=C1C=CC(=O)[C@]12C | 18.5 µM
Cc1ccc(C2SCC(=O)N2c2ccc(-c3ccc(-n4c(-c5ccccc5)nc5ccccc5c4=O)cc3)cc2)cc1 (centres undefined) | > 100 µM
c1ccc(N=c2nc(N3CCOCC3)ss2)cc1 | 36.3 µM
COc1ccc(P2(=S)SP(=S)(c3ccc(Cl)cc3)S2)cc1 (centres undefined) | > 100 µM
C=CCc1cc(C=C(C#N)C#N)cc(OC)c1O | > 100 µM

stdin: // returns reported TGI for input O=C(N/C(=C\c1ccc(/C=C(\NC(=O)c2ccccc2)c2nc3cc(Cl)ccc3[nH]2)cc1)c1nc2cc(Cl)ccc2[nH]1)c1ccccc1
stdout: > 100 µM

stdin: // returns reported TGI for input C[C@H](NC(=O)n1c2ccccc2c2ccccc21)C(=O)O
stdout: > 100 µM

stdin: // returns reported TGI for input CSc1nc2c(nc(N)n2C2OC(COC(C)=O)C(OC(C)=O)C(OC(C)=O)C2OC(C)=O)c(=O)n1C (centres undefined)
stdout: > 100 µM

stdin: // returns reported TGI for input O=c1c2cccc(F)c2sc2c(N3CCNCC3)nc3ccccc3c12
stdout: 2.6 µM

stdin: // returns reported TGI for input CN(C)c1ccc(-c2c(C#N)c(O)n(NS(=O)(=O)c3ccccc3)c(=O)c2C#N)cc1
stdout: > 100 µM

stdin: // returns reported TGI for input OC(c1cc2ccccc2[nH]1)C1(c2cccnc2)SCCCS1 (centres undefined)
stdout: > 100 µM

stdin: // returns reported TGI for input Cc1cc(=O)[nH]c2cc(NC(=O)C(CCCN=C(N)N)NC(=O)OCc3ccccc3)ccc12 (centres undefined)
stdout: > 100 µM

stdin: // returns reported TGI for input NC(=O)c1ncn(CCN2CCN(C(=O)NCCCCCCNC(=O)N3CCN(CCn4cnc(C(N)=O)c4N)CC3)CC2)c1N
stdout: > 100 µM

stdin: // returns reported TGI for input COC1(OC)N=C(N)C2(C#N)C3(C(=O)N(C(C)C)N=C3C)C12C#N (centres undefined)
stdout: > 100 µM

stdin: // returns reported TGI for input O=S1(=O)NC2CCC3NS(=O)(=O)NC4CCC(N1)N4S(=O)(=O)N23 (centres undefined)
stdout: > 100 µM

stdin: // returns reported TGI for input COc1cccc(NC(=O)C(C)(C)C)c1SSc1c(NC(=O)C(C)(C)C)cccc1OC
stdout: > 86 µM

stdin: // returns reported TGI for input CCCCCc1cc[n+](CC(=O)c2ccc([N+](=O)[O-])cc2)cc1
stdout: 9.84 µM

stdin: // returns reported TGI for input NCCCCCCCCCCCn1c2c(c3ccccc3c1=O)C(=O)c1ccccc1-2
stdout: 7.05 µM

stdin: // returns reported TGI for input COc1ccc(N2C(=O)c3c(c4[nH]c5ccc(OC)cc5c4c4ccc(C(C)(C)C)cc34)C2=O)cc1
stdout: > 100 µM

stdin: // returns reported TGI for input CN1C[C@H]2[C@@H](C1=O)[C@H](c1ccccc1)ON2C
stdout: > 100 µM

stdin: // returns reported TGI for input Cn1cc(S(=O)(=O)NC(=O)Nc2ccc(Cl)cc2)c2ccccc21
stdout: > 100 µM
